Cited source: paper PMC4723341

Molecular target: HIV-1 RT-associated RNase H activity, wt RT (Human immunodeficiency virus type 1 group M subtype B, UniProt P04585)
Construct: The 1:1 ration between the p66/p51 subunits was also verified
Assay: biochemical
IC50 reference

# MOLECULE, IC50 / nM
measured = [
    ("CC(C)c1ccc(O)c(=O)c(O)c1 [BTP, β-thujaplicinol, reference compound]", 190),
    ("N#Cc1ccc(-c2csc(NN=C3C(=O)Nc4ccccc43)n2)cc1", 1300),
]

###

pIC50 reference
Biological target: HIV-1 RT-associated RNase H activity, M230A RT (Human immunodeficiency virus type 1 group M subtype B, UniProt P04585, M817A)
Construct: The 1:1 ration between the p66/p51 subunits was also verified
Experiment: RNase H activity assay, M230A RT
pIC50: −log10 of the molar value.
EXPERIMENTAL_READOUT: pIC50

# COMPOUND, EXPERIMENTAL_READOUT, OBS_VALUE
records = [
    ("CC(C)c1ccc(O)c(=O)c(O)c1 [BTP, β-thujaplicinol, reference compound]", "pIC50", 6.85),
    ("N#Cc1ccc(-c2csc(NN=C3C(=O)Nc4ccccc43)n2)cc1 [RMNC6]", "pIC50", 6.30),
]

###

Biological target: HIV-1 RT-associated RNase H activity, Y181C RT (Human immunodeficiency virus type 1 group M subtype B, UniProt P04585, Y768C)
Construct: The 1:1 ration between the p66/p51 subunits was also verified; made in house; host or cells: E. coli M15
Assay: RNase H activity assay, Y181C RT
Assay type: biochemical, HIV-1 group M subtype B
EXPERIMENTAL_READOUT: IC50 (µM)

# MOLECULE, OBS_VALUE
data = [
    ("N#Cc1ccc(-c2csc(NN=C3C(=O)Nc4ccccc43)n2)cc1 [RMNC6]", 2.1),
]

###

Target: HIV-1 RT-associated RNase H activity, Y501A RT (Human immunodeficiency virus type 1 group M subtype B, UniProt P04585, Y1088A)
Construct: The 1:1 ration between the p66/p51 subunits was also verified
Experiment: biochemical
Text: […]
IC50 reference

# COMPOUND, MODIFIER, IC50 / nM
rows = [
    ("CC(C)c1ccc(O)c(=O)c(O)c1 [BTP, β-thujaplicinol, reference compound]", "=", 70),
    ("N#Cc1ccc(-c2csc(NN=C3C(=O)Nc4ccccc43)n2)cc1 [RMNC6]", ">", 100000),
]

###

IC50 reference
Biological target: HIV-1 RT-associated RNase H activity, E224A RT (Human immunodeficiency virus type 1 group M subtype B, UniProt P04585, E811A)
Construct: The 1:1 ration between the p66/p51 subunits was also verified
Test: RNase H activity assay, E224A RT

# COMPOUND, IC50 / µM
rows = [
    ("N#Cc1ccc(-c2csc(NN=C3C(=O)Nc4ccccc43)n2)cc1", 7.9),
    ("CC(C)c1ccc(O)c(=O)c(O)c1 [BTP, β-thujaplicinol, reference compound]", 0.15),
]

###

Biological target: HIV-1 RT-associated RNase H activity, Y188L RT (Human immunodeficiency virus type 1 group M subtype B, UniProt P04585, Y775L)
Construct: The 1:1 ration between the p66/p51 subunits was also verified; made in house; host or cells: E. coli M15
Experiment: RNase H activity assay, Y188L RT
Assay type: biochemical, HIV-1 group M subtype B
Conditions: Y188L RT; read-out: IC50 RNase H
EXPERIMENTAL_READOUT: IC50

# COMPOUND, OBS_VALUE
rows = [
    ("CC(C)c1ccc(O)c(=O)c(O)c1 [BTP, β-thujaplicinol, reference compound]", "80 nM"),
]

###

IC50 reference
Molecular target: HIV-1 RT-associated RNase H activity, P226A RT (Human immunodeficiency virus type 1 group M subtype B, UniProt P04585, P813A)
Construct: The 1:1 ration between the p66/p51 subunits was also verified
Test: RNase H activity assay, P226A RT

# MOLECULE, IC50 / nM
data = [
    ("CC(C)c1ccc(O)c(=O)c(O)c1 [BTP, β-thujaplicinol, reference compound]", 290),
    ("N#Cc1ccc(-c2csc(NN=C3C(=O)Nc4ccccc43)n2)cc1", 1900),
]

###

Target: HIV-1 RT-associated RDDP activity, A508V RT (Human immunodeficiency virus type 1 group M subtype B, UniProt P04585, A1095V)
Construct: The 1:1 ration between the p66/p51 subunits was also verified
Test: biochemical
pIC50: −log10 of the molar value.
EXPERIMENTAL_READOUT: pIC50

# MOLECULE, OBS_VALUE
records = [
    ("N#Cc1ccc(-c2csc(NN=C3C(=O)Nc4ccccc43)n2)cc1 [RMNC6]", 4.71),
]

###

Target: HIV-1 RT-associated RNase H activity, A502F RT (Human immunodeficiency virus type 1 group M subtype B, UniProt P04585, A1089F)
Construct: The 1:1 ration between the p66/p51 subunits was also verified
Assay: RNase H activity assay, A502F RT
IC50 reference
EXPERIMENTAL_READOUT: IC50 (µM)

# MOLECULE, EXPERIMENTAL_READOUT, OBS_VALUE
data = [
    ("CC(C)c1ccc(O)c(=O)c(O)c1 [BTP, β-thujaplicinol, reference compound]", "IC50", 0.17),
    ("N#Cc1ccc(-c2csc(NN=C3C(=O)Nc4ccccc43)n2)cc1", "IC50", 13),
]

###

Target: HIV-1 RT-associated RNase H activity, Y188L RT (Human immunodeficiency virus type 1 group M subtype B, UniProt P04585, Y775L)
Construct: The 1:1 ration between the p66/p51 subunits was also verified; made in house; host or cells: E. coli M15
Assay: RNase H activity assay, Y188L RT
Format: biochemical, HIV-1 group M subtype B

# COMPOUND, IC50 [nM]
data = [
    ("N#Cc1ccc(-c2csc(NN=C3C(=O)Nc4ccccc43)n2)cc1 [RMNC6]", 1600),
]

###

Molecular target: HIV-1 RT-associated RDDP activity, wt RT (Human immunodeficiency virus type 1 group M subtype B)
Construct: The 1:1 ration between the p66/p51 subunits was also verified
Experiment: biochemical
pIC50: −log10 of the molar value.
EXPERIMENTAL_READOUT: pIC50

# COMPOUND, OBS_VALUE
data = [
    ("N#Cc1ccc(-c2csc(NN=C3C(=O)Nc4ccccc43)n2)cc1 [RMNC6]", 5.01),
]

###

Biological target: HIV-1 RT-associated RDDP activity, HIV-1 group O RT (Human immunodeficiency virus type 1 group O)
pIC50: −log10 of the molar value.
pIC50 reference

# COMPOUND, pIC50
measured = [
    ("O=C1Nc2ccc(Cl)cc2[C@@](C#CC2CC2)(C(F)(F)F)O1 [EFV, Efavirenz, reference compound]", 6.67),
    ("N#Cc1ccc(-c2csc(NN=C3C(=O)Nc4ccccc43)n2)cc1", 4.70),
]

###

Target: HIV-1 RT-associated RDDP activity, F227A RT (Human immunodeficiency virus type 1 group M subtype B, UniProt P04585, F814A)
Construct: The 1:1 ration between the p66/p51 subunits was also verified
Assay: biochemical

# COMPOUND, IC50 / µM
records = [
    ("N#Cc1ccc(-c2csc(NN=C3C(=O)Nc4ccccc43)n2)cc1 [RMNC6]", 15.2),
]
